# TGT: CDK2/Cyclin E1 (Homo sapiens)
# MEASUREMENT_PROTOCOL: ADP-Glo Luminescent Kinase Assay (CDK2/E1-37C)
# Format: biochemical
# CONDITION_CONTEXT: 0.18 nM CDK2/Cyclin E1, 100 μM ATP, 1.5 μM Histone H1, 37° C., 60 min pre-incubation; read-out: ADPGLO (CDK2/E1-37C): IC50
# Experimental: Inhibition of CDK2/Cyclin E1 activity by the presence of small molecules was evaluated using ADP-Glo Luminescent Kinase Assay (Promega). […] Luminescence was recorded with an Envision plate reader (PerkinElmer). Dose titrations of inhibitors in 100% DMSO were combined with 0.36 nM CDK2/Cyclin E1 in reaction buffer. […] This mixture was incubated at room temperature for 60 minutes before Kinase Detection Solution is added to generate luminescence. […]
pIC50: −log10 of the molar value.
Listed here: items and their measured pIC50.

- COMPOUND: "N#Cc1ccc(Cn2cc(C(=O)N3CC(C(=O)N[C@H](COCC45CCC(CC4)OC5)c4ccc(C(=O)O)cc4)C4(C3)CN(C(=O)C3(C(F)(F)F)CC3)C4)cn2)cc1 (stereo partly shown) [Example I-19]"
  pIC50: "< 5.00"

Record C[C@@H](OCC12CCC(CC1)OC2)[C@H](NC(=O)[C@@H]1CN(C(=O)c2cnn(Cc3ccc(C(F)(F)F)cc3)c2)CC12CN(C(=O)C1(C(F)(F)F)CC1)C2)C(=O)N1CCC(c2ccccc2C(=O)O)CC1 [Example I-3] : what is its pIC50 with CDK2/Cyclin E1 (Homo sapiens)?
> 6.30

Input C[C@@H](OCC1(C(F)(F)F)CC1)[C@H](NC(=O)[C@@H]1CN(C(=O)c2cnn(Cc3ccc(C(F)(F)F)cc3)c2)CC12CN(C(=O)C1(C(F)(F)F)CC1)C2)C(=O)N1CCC(c2nccs2)CC1 [Example I-80]
5.30 to 6.30

Further, for COC(=O)C1(CNC(=O)[C@@H](NC(=O)[C@@H]2CN(C(=O)c3cnn(Cc4ccccc4)c3)CC23CN(C(=O)[C@H]2CC2(C)C)C3)[C@@H](C)OCC2CCCCC2)CC1 [Example I-39] ?
> 6.30
